Molecular target: KRAS G12D (Homo sapiens, UniProt P01116, G12D)
Construct: AsPc-1-KRAS (G12D)-HiBit-KI cell (Pharmaron); host or cells: AsPc-1-KRAS (G12D)-HiBit-KI cells (HiBiT knock-in at the endogenous KRAS locus)
Sequence (P01116 1-188 isoform P01116-2 G12D): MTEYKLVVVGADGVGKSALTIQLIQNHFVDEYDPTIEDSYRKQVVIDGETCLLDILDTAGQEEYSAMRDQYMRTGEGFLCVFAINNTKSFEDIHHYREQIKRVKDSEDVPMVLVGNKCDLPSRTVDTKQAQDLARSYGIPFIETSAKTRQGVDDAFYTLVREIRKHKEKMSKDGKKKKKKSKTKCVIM
Test: KRAS G12D HiBit assay
Assay type: cell-based
Conditions: AsPc-1-KRAS (G12D)-HiBit-KI cell, compound treatment for 24 hours, absolute DC50; class symbols
measured property: DC50

In the examples that follow, each entry is paired with its recorded DC50.
molecule: C#Cc1c(F)ccc2cc(O)cc(-c3ccc4c(N5CCC[C@@](C)(O)C5)nc(OCC5(CN6CCN(CC7CCN(c8ccc9c(c8)n(C)c(=O)n9C8CCC(=O)NC8=O)CC7)CC6)CC5)nc4c3F)c12 (stereo partly drawn)
assay system: KRAS G12D (Homo sapiens, UniProt P01116, G12D)
DC50: > 300 nM

molecule: CCc1c(F)ccc2cc(O)cc(-c3ncc4c(N5CCC[C@@](C)(O)C5)nc(OC[C@]56CCCN5[C@H](COC(=O)NC5CCN(c7cccc8c7n(C)c(=O)n8C7CCC(=O)NC7=O)CC5)CC6)nc4c3F)c12 (stereo partly drawn)
assay system: KRAS G12D (Homo sapiens, UniProt P01116, G12D)
DC50: < 100 nM

molecule: C#Cc1c(F)ccc2cc(O)cc(-c3ncc4c(N5CCC[C@@](C)(O)C5)nc(OC[C@@]56CCCN5[C@H](COC(=O)N5CCC(OCC#Cc7ccc8c(c7)n(C)c(=O)n8C7CCC(=O)NC7=O)CC5)CC6)nc4c3F)c12 (stereo partly drawn)
assay system: KRAS G12D (Homo sapiens, UniProt P01116, G12D)
DC50: < 100 nM

molecule: CCc1c(F)ccc2cc(O)cc(-c3ncc4c(N5CCC[C@@](C)(O)C5)nc(OC[C@@]56CCCN5[C@H](COC(=O)N5CCC7(CCC(N8CCC(c9ccc%10c(c9)n(C)c(=O)n%10C9CCC(=O)NC9=O)CC8)C7)CC5)CC6)nc4c3F)c12 (stereo partly drawn)
assay system: KRAS G12D (Homo sapiens, UniProt P01116, G12D)
DC50: < 100 nM

molecule: C#Cc1c(F)ccc2cc(O)cc(-c3ncc4c(N5CCC[C@@](C)(O)C5)nc(OC[C@@]56CCCN5[C@H](COC(=O)N5CCC(CN7CCC(c8ccc9c(c8)n(C8CCC(=O)NC8=O)c(=O)n9C)CC7)CC5)CC6)nc4c3F)c12 (stereo partly drawn)
assay system: KRAS G12D (Homo sapiens, UniProt P01116, G12D)
DC50: > 300 nM

Attention now turns to another entry.
Query: DC50; subject: C#Cc1c(F)ccc2cccc(-c3ncc4c(N5CCC[C@@](C)(O)C5)nc(OC[C@@]56CCCN5[C@H](COC(=O)NCCOc5ccc7c(c5)n(C)c(=O)n7C5CCC(=O)NC5=O)CC6)nc4c3F)c12 (stereo partly drawn)
> 300 nM

###

Molecular target: KRAS G12V (Homo sapiens, UniProt P01116, G12V)
Construct: SW620-KRAS (G12V)-HiBit-KI cell (Pharmaron); host or cells: SW620-KRAS (G12V)-HiBit-KI cells (HiBiT knock-in at the endogenous KRAS locus)
Sequence (P01116 1-188 isoform P01116-2 G12V): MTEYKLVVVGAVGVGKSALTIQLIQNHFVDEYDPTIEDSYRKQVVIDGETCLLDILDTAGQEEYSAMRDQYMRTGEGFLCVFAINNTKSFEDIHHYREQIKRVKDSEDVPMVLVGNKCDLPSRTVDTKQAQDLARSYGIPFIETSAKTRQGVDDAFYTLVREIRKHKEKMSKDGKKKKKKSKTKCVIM
Assay: KRAS G12V HiBit assay
Format: cell-based
Details: SW620-KRAS (G12V)-HiBit-KI cells, compound treatment for 24 hours, class symbols
Listing: DC50 of selected molecules

molecule: CCc1c(F)ccc2cc(O)cc(-c3ncc4c(N5CCC[C@@](C)(O)C5)nc(OC[C@@]56CCCN5[C@H](COC(=O)N5CCC7(CC5)CC(N5CC(c8ccc9c(c8)n(C)c(=O)n9C8CCC(=O)NC8=O)C5)C7)CC6)nc4c3F)c12 (stereo partly drawn) [Compound 464]
assay system: KRAS G12V (Homo sapiens, UniProt P01116, G12V)
DC50: < 10 nM
--
molecule: CCc1c(F)ccc2cccc(-c3ncc4c(N5CCC[C@@](C)(O)C5)nc(OC[C@@]56CCCN5[C@H](COC(=O)NCCOc5ccc7c(c5)n(C)c(=O)n7C5CCC(=O)NC5=O)CC6)nc4c3F)c12 (stereo partly drawn) [Compound 111]
assay system: KRAS G12V (Homo sapiens, UniProt P01116, G12V)
DC50: > 100 nM
--
molecule: C#Cc1c(F)ccc2cc(O)cc(-c3ncc4c(N5CCC[C@@](C)(O)C5)nc(OCC5(CN6CCC(CN7CCC(c8ccc9c(c8)n(C)c(=O)n9C8CCC(=O)NC8=O)CC7)CC6)CC5)nc4c3F)c12 (stereo partly drawn) [Compound 47]
assay system: KRAS G12V (Homo sapiens, UniProt P01116, G12V)
DC50: > 100 nM

Query: DC50; subject: Cn1c(=O)n(C2CCC(=O)NC2=O)c2cccc(C3CCN(CC4CCN(C(=O)CN5CCN(c6nccc(-c7noc([C@@]8(C)CCCc9sc(N)c(C#N)c98)n7)n6)CC5)CC4)CC3)c21 (stereo partly drawn) [Compound 222]
> 100 nM

Subsequent entry: C#Cc1c(F)ccc2cc(O)cc(-c3ncc4c(N5CCC[C@@](C)(O)C5)nc(OCC5(CN6CCC7(CC6)CC(N6CCN(c8cccc9c8n(C)c(=O)n9C8CCC(=O)NC8=O)CC6)C7)CC5)nc4c3F)c12 (stereo partly drawn) [Compound 71]
< 10 nM

Subsequent entry: Cn1c(=O)n(C2CCC(=O)NC2=O)c2cc(F)c(C3CCN(CC4CCN(C(=O)OC[C@@H]5CC[C@]6(COc7nc(N8CCC[C@@](C)(O)C8)c8cnc(-c9cc(O)cc%10ccc(F)cc9%10)c(F)c8n7)CCCN56)CC4)CC3)cc21 (stereo partly drawn) [Compound 447]
< 10 nM
